Biological target: T1, human IL-18 binding protein (IL-18BP) (human, UniProt O95998 31-194)
T1 sequence (looked up): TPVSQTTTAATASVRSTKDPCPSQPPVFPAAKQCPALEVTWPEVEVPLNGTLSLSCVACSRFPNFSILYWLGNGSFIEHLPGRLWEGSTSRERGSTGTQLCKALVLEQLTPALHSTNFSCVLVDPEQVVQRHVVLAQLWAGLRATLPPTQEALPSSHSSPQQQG
Assay: cell-based or functional assay
Endpoint Label: Fold Change (BP/NO BP), 300 nM BP (fold)
One number for each entry, in fold.

IL-18 variant M60K, D157E (ligand) YFGKLESKLSVIRNLNDQVLFIDQGNRPLFEDMTDSDMRDNAPRTIFIISMYKDSQPRGKAVTISVKSEKISTLSSENKIISFKEMNPPDNIKDTKSDIIFFQRSVPGHDNKMQFESSSYEGYFLASEKERDLFKLILKKEDELGDRSIMFTVQNEE ... 9.04
IL-18 variant M60K (ligand) YFGKLESKLSVIRNLNDQVLFIDQGNRPLFEDMTDSDMRDNAPRTIFIISMYKDSQPRGKAVTISVKSEKISTLSSENKIISFKEMNPPDNIKDTKSDIIFFQRSVPGHDNKMQFESSSYEGYFLASEKERDLFKLILKKEDELGDRSIMFTVQNED ... 9.67
IL-18 variant G3V, M60K, D157E (ligand) YFVKLESKLSVIRNLNDQVLFIDQGNRPLFEDMTDSDMRDNAPRTIFIISMYKDSQPRGKAVTISVKSEKISTLSSENKIISFKEMNPPDNIKDTKSDIIFFQRSVPGHDNKMQFESSSYEGYFLASEKERDLFKLILKKEDELGDRSIMFTVQNEE ... 3.74
IL-18 variant G3V, M60K (ligand) YFVKLESKLSVIRNLNDQVLFIDQGNRPLFEDMTDSDMRDNAPRTIFIISMYKDSQPRGKAVTISVKSEKISTLSSENKIISFKEMNPPDNIKDTKSDIIFFQRSVPGHDNKMQFESSSYEGYFLASEKERDLFKLILKKEDELGDRSIMFTVQNED ... 3.25
IL-18 variant G3T, M60K, D157E (ligand) YFTKLESKLSVIRNLNDQVLFIDQGNRPLFEDMTDSDMRDNAPRTIFIISMYKDSQPRGKAVTISVKSEKISTLSSENKIISFKEMNPPDNIKDTKSDIIFFQRSVPGHDNKMQFESSSYEGYFLASEKERDLFKLILKKEDELGDRSIMFTVQNEE ... 3.69
IL-18 variant G3T, E6K, K53A (ligand, also called G3T, K53A, E6K) YFTKLKSKLSVIRNLNDQVLFIDQGNRPLFEDMTDSDMRDNAPRTIFIISMYADSQPRGMAVTISVKSEKISTLSSENKIISFKEMNPPDNIKDTKSDIIFFQRSVPGHDNKMQFESSSYEGYFLASEKERDLFKLILKKEDELGDRSIMFTVQNED ... 35.2
Comparator 1 (human IL-18 variant M51K, K53S, Q56L, P57A, M60L, S105D, D110S, N111R) (ligand) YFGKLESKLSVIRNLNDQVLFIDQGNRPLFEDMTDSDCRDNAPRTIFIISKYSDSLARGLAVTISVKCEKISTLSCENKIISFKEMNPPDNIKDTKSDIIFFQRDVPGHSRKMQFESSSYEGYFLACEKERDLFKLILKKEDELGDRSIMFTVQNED ... 0.83
IL-18 variant G3T, M60K (ligand) YFTKLESKLSVIRNLNDQVLFIDQGNRPLFEDMTDSDMRDNAPRTIFIISMYKDSQPRGKAVTISVKSEKISTLSSENKIISFKEMNPPDNIKDTKSDIIFFQRSVPGHDNKMQFESSSYEGYFLASEKERDLFKLILKKEDELGDRSIMFTVQNED ... 3.14

Lab book: Fold Change (BP/NO BP), 300 nM BP of IL-18 variant G3V, E6K, K53A (ligand, also called G3V, K53A, E6K) YFVKLKSKLSVIRNLNDQVLFIDQGNRPLFEDMTDSDMRDNAPRTIFIISMYADSQPRGMAVTISVKSEKISTLSSENKIISFKEMNPPDNIKDTKSDIIFFQRSVPGHDNKMQFESSSYEGYFLASEKERDLFKLILKKEDELGDRSIMFTVQNED noted as 74.8
